Sourced from PubChem BioAssay AID1996

study_conditions: buffer; pH 7.4; 200.0 µM
recorded_metric: solubility kinetic (µg/mL)
Numbers only, in µg/mL.

{"compound": "COc1ccc(NC(=O)/C=C/c2ccc(OC(F)F)cc2)cn1", "measurement_units": "µg/mL", "recorded_number": 2}
{"compound": "C=CCC1Cc2c(cccc2[N+](=O)[O-])C(CC=C)N1 (configuration not stated)", "measurement_units": "µg/mL", "recorded_number": 30.5}
{"compound": "CCOc1cccc(CNCc2ccncc2)c1", "measurement_units": "µg/mL", "recorded_number": 27.4}
{"compound": "Cc1ccc(CC(=O)NC2CCN(Cc3ccccc3)CC2)cc1", "measurement_units": "µg/mL", "recorded_number": 41.7}
{"compound": "Cc1c(C(=O)NCc2ccco2)oc2c(F)cccc12", "measurement_units": "µg/mL", "recorded_number": 8.1}

For every listed record, write down its solubility kinetic.
1. COc1ncnc(-c2ccccc2)c1-c1ccccc1
2. COc1ccc(CCC(=O)Nc2cnc3ccccc3c2)cc1
3. O=c1cc(-c2ccccc2)nc(/C=C/c2ccccc2)[nH]1

Output line:
1. 14.9
2. 1
3. 0.4

Would you be so kind as to report solubility kinetic for each listed record?
1. Cc1ccc(S(=O)(=O)NCCOc2nc(N(C)C)nc(N(C)C)n2)cc1
2. Cc1ccc(N=C2NC(=O)/C(=C/c3cccn3C)S2)cc1

Output line:
52.8
2

----------
study_conditions: buffer; pH 7.4; 200.0 µM
Returns one of yes or no; yes when solubility kinetic is >= 10 µg/mL.

{"compound": "CC1CCc2c(sc3ncnc(SCC(=O)N(C)C4CCS(=O)(=O)C4)c23)C1 (configuration not stated)", "assigned_class": "no"}
{"compound": "CCN(C(=S)NCCOC)c1cccc2ccccc12", "assigned_class": "yes"}

Input line: Is it the case that Cc1cc(C)cc(NC(=O)C2CCCN(c3ncccn3)C2)c1 (configuration not stated) has solubility kinetic reaching or exceeding 10 µg/mL?
Output line: no

Input line: hey, is solubility kinetic for this one >= 10 µg/mL? `O=C(Cc1ccc(F)cc1)N1CCOCC1`
Output line: yes

Input line: Hello, I need to know if `COc1ccc(OC)c(NC(=O)COC(=O)CCS(=O)(=O)c2ccc(Cl)cc2)c1` has measured solubility kinetic not below 10 µg/mL. Thanks!
Output line: yes

Input line: Answer whether solubility kinetic of `CCOC(=O)Cn1cc(C(=O)C(C)(C)C)c2ccccc21` is greater than or equal to 10 µg/mL.
Output line: yes

Input line: Is the recorded value of solubility kinetic equal to or greater than 10 µg/mL for this compound? CC(C)(C)NC(=O)C(OC(=O)c1cccs1)c1ccccc1 (configuration not stated)
Output line: no

Input line: Is it the case that Cc1ccc(C2CCN(C(=S)NC3CCCCC3)C2)cc1 (configuration not stated) has solubility kinetic reaching or exceeding 10 µg/mL?
Output line: no

Input line: Check this compound for solubility kinetic at or above 10 µg/mL: `CC(=O)Nc1ccccc1OCc1cnc(Cl)s1`
Output line: yes

----------
study_conditions: buffer; pH 7.4; 200.0 µM
recorded_metric: solubility kinetic

Observe how each entry below is paired with its result.
{"molecule": "CC(Sc1nnc(NC2CC2)s1)C(=O)Nc1ccc(S(N)(=O)=O)cc1 (stereo not given)", "solubility kinetic": "> 59.9 µg/mL"}
{"molecule": "CCC(C)NC(=O)c1ccc2nc(Cc3ccc(OC)cc3)oc2c1 (stereo not given)", "solubility kinetic": "4.7 µg/mL"}
{"molecule": "CC(=O)Nc1ccc2sc(NC(=O)CN3CCOCC3)nc2c1", "solubility kinetic": "> 50.2 µg/mL"}

Please look at the items below and tell me solubility kinetic for each one, in order.
1. O=C1CN=C(c2ccc(Cl)cc2)c2oc3ccccc3c2N1
2. Cc1cccnc1NC1CCCCC1
3. CCN(Cc1nc(-c2ccccc2)no1)C(=O)c1ccoc1C

Output line:
< 0.3 µg/mL
8.1 µg/mL
40.2 µg/mL

Below is a list of molecules. For each, state its recorded solubility kinetic.
1. Cc1ccc(CN2CCN(c3cccc4[nH]ccc34)CC2)cc1
2. Cc1ccsc1CNS(=O)(=O)c1ccc(F)cc1
3. N#CCSc1nc2ccccc2c(=O)n1CCCC(=O)NCC1CCCO1 (stereo not given)
4. CCc1cccc(C)c1N1C(=O)CN(Cc2ccccc2)C1=S

Output line:
41.2 µg/mL
30 µg/mL
47.7 µg/mL
12.1 µg/mL
